Exercise: state measured pIC50 for each of the compounds provided.
Target: His-GST-PARP7 (Homo sapiens (Human), UniProt Q7Z3E1)
Sequence (Q7Z3E1 whole entry): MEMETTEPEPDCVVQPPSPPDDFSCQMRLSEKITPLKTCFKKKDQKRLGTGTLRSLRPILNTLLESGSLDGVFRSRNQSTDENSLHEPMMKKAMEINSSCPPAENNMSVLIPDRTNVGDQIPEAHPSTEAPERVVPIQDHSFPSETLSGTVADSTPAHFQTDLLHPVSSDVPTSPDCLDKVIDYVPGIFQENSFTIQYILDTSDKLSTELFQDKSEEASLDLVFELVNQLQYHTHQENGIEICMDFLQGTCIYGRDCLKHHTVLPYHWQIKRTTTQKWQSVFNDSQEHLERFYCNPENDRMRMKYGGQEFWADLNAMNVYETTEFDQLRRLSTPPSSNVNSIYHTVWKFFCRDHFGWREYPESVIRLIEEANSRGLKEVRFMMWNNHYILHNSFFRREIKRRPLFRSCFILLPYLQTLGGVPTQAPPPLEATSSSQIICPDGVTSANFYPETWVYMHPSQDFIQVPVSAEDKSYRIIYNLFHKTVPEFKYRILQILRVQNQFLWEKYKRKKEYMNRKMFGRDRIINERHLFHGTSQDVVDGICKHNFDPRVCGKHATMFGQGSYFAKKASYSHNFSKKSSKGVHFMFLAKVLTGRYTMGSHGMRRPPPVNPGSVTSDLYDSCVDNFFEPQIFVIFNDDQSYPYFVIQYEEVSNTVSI
Assay: PARP7 biochemical assay
Details: read-out: PARP7 IC50
pIC50: −log10 of the molar value.

Look up pIC50: COc1cc(C#N)cnc1N1CCN(C(=O)c2cc(Cc3n[nH]c(=O)c4ccc(OC5CCC5)cc34)ccc2F)CC1 > 7.30

Look up pIC50: CC#Cc1ccc2c(=O)[nH]nc(Cc3ccc(F)c(C#N)c3)c2c1 < 5.70

Look up pIC50: O=C(c1cc(Cc2n[nH]c(=O)c3ccc(OC4CCC4)cc23)ccc1F)N1CCn2c(nnc2C(F)(F)F)C1 > 7.30

Look up pIC50: COc1ccc2c(=O)[nH]nc(Cc3cccc(C(=O)N4CCN(c5ccc(C#N)cn5)CC4)c3)c2c1 > 7.30

Look up pIC50: CN(C(=O)C1CCN1)C1CN(C(=O)c2cc(Cc3n[nH]c(=O)c4ccc(OC5CCC5)cc34)ccc2F)C1 (stereo not shown) 5.70 to 6.30

Look up pIC50: O=C(c1cc(Cc2n[nH]c(=O)c3ccc(OC4CCC4)cc23)ccc1F)N1CCN(c2ccc(C(F)(F)F)cn2)CC1 > 7.30

Look up pIC50: CC#Cc1ccc2c(=O)[nH]nc(Cc3ccc(F)c(C(=O)N4CCN(c5ccc(C#N)cn5)C(C)C4)c3)c2c1 (stereo not shown) > 7.30

* * *

Target: PARP2 (Homo sapiens (Human), UniProt Q9UGN5)
Sequence (Q9UGN5 whole entry): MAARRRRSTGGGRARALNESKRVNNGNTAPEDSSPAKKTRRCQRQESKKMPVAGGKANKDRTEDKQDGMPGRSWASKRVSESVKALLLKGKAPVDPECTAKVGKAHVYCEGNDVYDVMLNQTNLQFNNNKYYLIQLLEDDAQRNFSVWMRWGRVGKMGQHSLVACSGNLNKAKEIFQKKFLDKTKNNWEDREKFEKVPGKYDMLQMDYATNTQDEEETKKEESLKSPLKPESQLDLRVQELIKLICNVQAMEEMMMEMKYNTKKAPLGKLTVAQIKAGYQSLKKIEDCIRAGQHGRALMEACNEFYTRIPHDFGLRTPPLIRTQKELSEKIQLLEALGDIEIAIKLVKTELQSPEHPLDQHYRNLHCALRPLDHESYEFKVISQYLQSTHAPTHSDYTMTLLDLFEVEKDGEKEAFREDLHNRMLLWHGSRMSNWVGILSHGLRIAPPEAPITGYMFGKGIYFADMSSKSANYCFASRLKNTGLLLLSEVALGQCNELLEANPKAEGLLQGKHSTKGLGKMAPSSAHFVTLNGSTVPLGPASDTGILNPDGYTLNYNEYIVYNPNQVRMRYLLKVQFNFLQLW
Test: PARP2 biochemical assay
Conditions: read-out: PARP2 IC50
metric.name: IC50

Look up IC50: CC#Cc1ccc2c(=O)[nH]nc(Cc3ccc(F)c(C(=O)N4CCN(c5ccc(C#N)cn5)C(C)C4)c3)c2c1 (stereo not drawn) [Example 72] 100 to 500 nM

Look up IC50: C#CC(C)Oc1ccc2c(=O)[nH]nc(Cc3ccc(F)c(C(=O)N4CCN(c5ccc(C#N)cn5)CC4)c3)c2c1 (stereo not drawn) [Example 8] 100 to 500 nM

Look up IC50: CC#Cc1ccc2c(=O)[nH]nc(CNC(C)CC(=O)N3CCN(c4ncc(C(F)(F)F)cn4)CC3)c2c1 (stereo not drawn) [Example 191] > 2000 nM

Look up IC50: N#Cc1ccc(N2CCN(C(=O)c3cccc(Cc4n[nH]c(=O)c5c(F)c(F)ccc45)c3)CC2)nc1 [Example 87] < 50 nM

Look up IC50: N#Cc1ccc(N2CCN(C(=O)c3cc(Cc4n[nH]c(=O)c5ccc(N6CC7(CC(O)C7)C6)cc45)ccc3F)CC2)nc1 [Example 23] 500 to 2000 nM

Look up IC50: O=C(c1cc(Cc2n[nH]c(=O)c3ccc(C#CC(F)(F)F)cc23)ccc1F)N1CCN(c2ncc(C(F)(F)F)cn2)CC1 [Example 49] 100 to 500 nM

Look up IC50: CC#Cc1cc(C(F)(F)F)c2c(=O)[nH]nc(Cc3ccc(F)c(C(=O)N4CCN(c5ccc(C#N)cn5)CC4)c3)c2c1 [Example 84] 100 to 500 nM

Look up IC50: CC#Cc1ccc2c(=O)[nH]nc(Cc3ccc(F)c(C(=O)N4CCN(c5ccc(C#N)cn5)CC4)c3)c2c1C [Example 86] 500 to 2000 nM

Look up IC50: CC#Cc1ccc2c(=O)[nH]nc(Cc3ccc(F)c(C(=O)N4CCN(c5ccc(C#N)cn5)CC4)c3)c2c1 [Example 10] 100 to 500 nM

Look up IC50: O=C(c1cc(Cc2n[nH]c(=O)c3ccc(C4CC4)cc23)ccc1F)N1CCN(c2ncc(C(F)(F)F)cn2)CC1 [Example 45] 100 to 500 nM

Look up IC50: CC(C)(C)Cc1ccc2c(=O)[nH]nc(Cc3ccc(F)c(C(=O)N4CCN(c5ccc(C#N)cn5)CC4)c3)c2c1 [Example 41] 100 to 500 nM

Look up IC50: N#Cc1ccc(N2CCN(C(=O)c3cc(Cc4n[nH]c(=O)c5ccc(N6CC7(CCC7)C6)cc45)ccc3F)CC2)nc1 [Example 31] > 2000 nM

Look up IC50: N#Cc1ccc(N2CCN(C(=O)c3cc(Cc4n[nH]c(=O)c5ccc(OC(F)(F)F)cc45)ccc3F)CC2)nc1 [Example 30] 100 to 500 nM

Look up IC50: N#Cc1ccc(N2CCN(C(=O)c3cc(Cc4n[nH]c(=O)c5ccc(C#CC(F)(F)F)cc45)ccc3F)CC2)nc1 [Example 24] 100 to 500 nM

Look up IC50: O=C(c1cc(Cc2n[nH]c(=O)c3ccc(C#CC4CC4)cc23)ccc1F)N1CCN(c2ncc(C(F)(F)F)cn2)CC1 [Example 47] 500 to 2000 nM

* * *

Exercise: state measured IC50 for each of the compounds provided.
Biological target: His-GST-PARP7 (Homo sapiens (Human), UniProt Q7Z3E1)
Test: PARP7 biochemical assay
Conditions: read-out: PARP7 IC50

Look up IC50: O=C(c1cc(Cc2n[nH]c(=O)c3ccc(OC4CCC4)cc23)ccc1F)N1C[C@@H]2CC[C@H]1CN2C(=O)C1CC1 (stereo in doubt) [Example 142] 100 to 500 nM

Look up IC50: CC#Cc1ccc2c(=O)[nH]nc(Cc3ccc(F)c(C(=O)N4CCN(c5ccc(C#N)cn5)CC(F)(F)C4)c3)c2c1 [Example 80] < 50 nM

Look up IC50: Cc1nc(N2CCN(C(=O)c3cc(Cc4n[nH]c(=O)c5ccc(OC6CCC6)cc45)ccc3F)CC2)ccc1C#N [Example 133] < 50 nM

Look up IC50: N#Cc1ccc(N2CCN(C(=O)c3cccc(Cc4n[nH]c(=O)c5ccc(OC6CCC6)cc45)n3)CC2)nc1 [Example 176] < 50 nM

Look up IC50: O=C(C1CC1)N1CCN(c2noc3ccc(Cc4n[nH]c(=O)c5ccc(OC6CCC6)cc45)cc23)CC1 [Example 210] 500 to 2000 nM

Look up IC50: N#Cc1ccc(N2CCN(C(=O)c3cc(Cc4n[nH]c(=O)c5ccc(CC(F)(F)F)cc45)ccc3F)CC2)nc1 [Example 183] < 50 nM

Look up IC50: O=C(c1cc(Cc2n[nH]c(=O)c3ccc(OC4CCC4)cc23)ccc1F)N1CCN(c2ccc(C(F)(F)F)nc2)CC1 [Example 159] < 50 nM

Look up IC50: COc1ccc2c(=O)[nH]nc(Cc3ccc(S(C)(=O)=O)c(C(=O)N4CCN(c5ccc(C#N)cn5)CC4)c3)c2c1 [Example 182] < 50 nM

* * *

Exercise: state measured IC50 for each of the compounds provided.
Biological target: His-GST-PARP7 (Homo sapiens (Human))
Assay: PARP7 biochemical assay
Details: read-out: PARP7 IC50

What value of IC50 on His-GST-PARP7 (Homo sapiens (Human)) does N#Cc1ccc(-c2nnc3n2CCN(C(=O)c2cc(Cc4n[nH]c(=O)c5ccc(OC6CCC6)cc45)ccc2F)C3)nc1 [Example 139] have? < 50 nM

What value of IC50 on His-GST-PARP7 (Homo sapiens (Human)) does CC#Cc1ccc2c(=O)[nH]nc(Cc3ccc(F)c(C(=O)N4CCC(F)(c5ccc(C#N)cn5)CC4)c3)c2c1 [Example 67] have? 50 to 100 nM

What value of IC50 on His-GST-PARP7 (Homo sapiens (Human)) does N#Cc1ccc(N2CCN(C(=O)c3cc(Cc4n[nH]c(=O)c5ccc(NCC(F)(F)F)cc45)ccc3F)CC2)nc1 [Example 22] have? < 50 nM

What value of IC50 on His-GST-PARP7 (Homo sapiens (Human)) does CC#Cc1ccc2c(=O)[nH]nc(CNC(C)CC(=O)N3CCN(c4ncc(C(F)(F)F)cn4)CC3)c2c1 (stereo not shown) [Example 191] have? < 50 nM

What value of IC50 on His-GST-PARP7 (Homo sapiens (Human)) does COCc1nnc2n1CCN(C(=O)c1cc(Cc3n[nH]c(=O)c4ccc(OC5CCC5)cc34)ccc1F)C2 [Example 167] have? < 50 nM

What value of IC50 on His-GST-PARP7 (Homo sapiens (Human)) does N#Cc1ccnc(N2CCN(C(=O)c3cc(Cc4n[nH]c(=O)c5ccc(OC6CCC6)cc45)ccc3F)CC2)c1 [Example 95] have? < 50 nM

What value of IC50 on His-GST-PARP7 (Homo sapiens (Human)) does CC#Cc1ccc2c(=O)[nH]nc(Cc3ccc(F)c(C(=O)N4CCN(c5ccc(C#N)cn5)CC4)c3)c2c1C [Example 86] have? < 50 nM

* * *

Test system: NCI-H1373 (human lung adenocarcinoma) cells
Assay: Cell proliferation assay (CellTiter-Glo), NCI-H1373
Format: cell-based
Conditions: Homo sapiens, NCI-H1373, 144 h; 6 days, CellTiter-Glo; read-out: NCI-H1373 GI50
metric.name: GI50

Look up GI50: O=C(c1cc(Cc2n[nH]c(=O)c3ccc(OC4CCC4)cc23)ccc1F)N1CCn2c(nnc2C(F)(F)F)C1 1000 to 5000 nM

Look up GI50: CC#Cc1ccc2c(=O)[nH]nc(Cc3ccc(F)c(C(=O)N(C)C4CN(c5ccc(C#N)cn5)C4)c3)c2c1 1000 to 5000 nM

Look up GI50: N#Cc1ccc(N2CC3(CN(C(=O)c4cc(Cc5n[nH]c(=O)c6ccc(OC7CCC7)cc56)ccc4F)C3)C2)nc1 > 5000 nM

Look up GI50: N#Cc1ccc(N2CCN(C(=O)c3cc(Cc4n[nH]c(=O)c5c(C(F)(F)F)cc(OC6CCC6)cc45)ccc3F)CC2)nc1 < 100 nM

Look up GI50: N#Cc1ccc(N2CCN(c3noc4c(Cc5n[nH]c(=O)c6ccc(OC7CCC7)cc56)cccc34)CC2)nc1 1000 to 5000 nM

Look up GI50: COc1cc(C#N)cnc1N1CCN(C(=O)c2cc(Cc3n[nH]c(=O)c4ccc(OC5CCC5)cc34)ccc2F)CC1 100 to 1000 nM

Look up GI50: CC#Cc1ccc2c(=O)[nH]nc(C(C)N(C)CCC(=O)N3CCN(c4ncc(C(F)(F)F)cn4)CC3)c2c1 (stereo not shown) 100 to 1000 nM

Look up GI50: CC#Cc1ccc2c(=O)[nH]nc(Cc3ccc(F)c(C(=O)N4CC(N(C)c5cc(C#N)ccn5)C4)c3)c2c1 > 5000 nM

Look up GI50: N#Cc1ccc(N2CCN(C(=O)c3cccc(Cc4n[nH]c(=O)c5ccc(OC6CCC6)cc45)n3)CC2)nc1 100 to 1000 nM

Look up GI50: N#Cc1ccc(N2CCN(C(=O)c3cc(Cc4n[nH]c(=O)c5ccc(NC6CCC6)cc45)ccc3F)CC2)nc1 100 to 1000 nM

Look up GI50: CC#Cc1ccc2c(=O)[nH]nc(Cc3ccc(F)c(C(=O)N4CCN(c5cc(C(=O)NC)ccn5)CC4)c3)c2c1 100 to 1000 nM

Look up GI50: CC#Cc1ccc2c(=O)[nH]nc(Cc3ccc(F)c(C(=O)N4CCN(C(=O)CC#N)CC4)c3)c2c1 > 5000 nM

Look up GI50: O=C(c1cc(Cc2n[nH]c(=O)c3ccc(OC4CCC4)cc23)ccc1F)N1CCN(c2ccc(C(F)(F)F)cn2)CC1 < 100 nM
